Target: T1, DENV-3 nonstructural protein 1 (NS1), recombinant (Dengue virus 3, strain Sri …, UniProt Q6YMS4)
T1 construct: also called DENV-3 NS1; NS1 from DENV-3; source: bought: Native Antigen Company (recombinant)
Test: SPR
Details: both partners purified
pKd: −log10 of the molar value.
observed-property: pKd

>  <binder>
sdAb DD5 (VHH, source: E. coli Turner (DE3), pET22b, periplasmic, purified (Ni-Sepharose, SEC)) VHH: EVQLQASGGGLVQAGGSLRLSCAASGRAFSSETMGWFRQAPGKEREFVAAIWRIGGSTYNTDYADSVKGRFAISADRAKNTVDLQMNTLKPEDTAVYYCAGKMRGRSVNLYDYDYWGQGTQVTVSS

>  <recorded-result>
7.60

$$$$
>  <binder>
sdAb DB5 (VHH, source: E. coli Turner (DE3), pET22b, periplasmic, purified (Ni-Sepharose, SEC)) VHH: DVQLQASGGGLVQDGGSLRLSCAASGLGFRIHSMGWYRQAPGKARDLVAVITDSGQTNYAPSVKGRFTISRESAGNTVYLQMNSLKPDDTAVYYCAVTTWDPHSYWGQGTQVTVSS

>  <recorded-result>
8.80

$$$$
>  <binder>
sdAb DD7 (VHH, source: E. coli Turner (DE3), pET22b, periplasmic, purified (Ni-Sepharose, SEC)) VHH: EVQLVQSGGGSVQAGGSLRLSCAHSSITVPDYTIGWFRRAPGKGGEEVSLISMHGGRSWYAGSVKGRFAISRDSVKNTVYLQMNNLKPEDTDIYYCGGTTFGLAAAPNEYDSWGQGSQVTVSS

>  <recorded-result>
8.62

$$$$
>  <binder>
sdAb DD9 (VHH, source: E. coli Turner (DE3), pET22b, periplasmic, purified (Ni-Sepharose, SEC)) VHH: EVQLQASGGGLVQAGGSLRVSCAASGIAFTNYALAWYRQPPGKQREWVATVGVLGGTKYADSVKGRFAISRDNAKNTVILQMNSLKPVDTAVYFCAAVEWSNGRYYWDSWGQGTQVTVSA

>  <recorded-result>
8.51

$$$$
>  <binder>
sdAb DD1 (VHH, source: E. coli Turner (DE3), pET22b, periplasmic, purified (Ni-Sepharose, SEC)) VHH: EVQLQASGGGLVQAGGSLRVSCAATGIAFASYAVAWYRQAPGKQREWVATVGGLGGTKYVDSVKGRFTISRDNAKNAVTLQMNSLKPEDTAVYYCAAVEWDDGHYYWDTWGQGTRVTVSA

>  <recorded-result>
7.75

$$$$
>  <binder>
sdAb DC7 (VHH, source: E. coli Turner (DE3), pET22b, periplasmic, purified (Ni-Sepharose, SEC)) VHH: EVQLQASGGGSVQAGGSLRLSCAHSSITVPDYTIGWYRRAPGKGGEEVSLISMHGGRTWYAGSVKGRFAISRDSVKNTVYLQMNNLKPEDTDIYYCGGTTFGLAAAPNEYDSWGQGSQVTVSS

>  <recorded-result>
8.77

$$$$
